cond: in 1,4-dioxane, 313.15 K
outcome.measure: solubility (mole fraction)
Output spec: single numeric token, no unit.

solubility (mole fraction) reported for this compound CC1(C)COP(=O)(Oc2cc(OP3(=O)OCC(C)(C)CO3)cc(OP3(=O)OCC(C)(C)CO3)c2)OC1 : 0.000153

* * *

cond: in acetone, 313.15 K
outcome.measure: solubility (mole fraction)
Output spec: single numeric token, no unit.

solubility (mole fraction) reported for this compound CC1(C)COP(=O)(Oc2cc(OP3(=O)OCC(C)(C)CO3)cc(OP3(=O)OCC(C)(C)CO3)c2)OC1 : 0.000805

* * *

cond: in methanol, 293.15 K
outcome.measure: solubility (mole fraction)
Output spec: single numeric token, no unit.

solubility (mole fraction) reported for this molecule CC1(C)COP(=O)(Oc2cc(OP3(=O)OCC(C)(C)CO3)cc(OP3(=O)OCC(C)(C)CO3)c2)OC1 : 0.000496

* * *

cond: in acetone, 298.15 K
outcome.measure: solubility (mole fraction)
Output spec: single numeric token, no unit.

solubility (mole fraction) reported for this molecule CC1(C)COP(=O)(Oc2cc(OP3(=O)OCC(C)(C)CO3)cc(OP3(=O)OCC(C)(C)CO3)c2)OC1 : 0.000568
